molecular target: EZH2 within the PRC2 complex (Homo sapiens (Human)); assay: EZH2 methyltransferase SPA, biotinylated histone H3K27 peptide substrate (Assay Protocol 2); assay type: biochemical; conditions: 3H-SAM, ≦10 nM approaches limit of detection
Structures can show the parent of a compound that is named as a salt.
READOUT: IC50 (nM)

These solved cases illustrate the format of a correct answer.
CCC(CCCN1CCN(C)CC1)c1scc(C(=O)NCc2c(C)cc(C)[nH]c2=O)c1C (stereo not shown) = 126
CCC(c1scc(C(=O)NCc2c(C)cc(C)[nH]c2=O)c1C)C1CCN(C(=O)OC(C)(C)C)CC1 (stereo not shown) = 50
CCN(c1sc(C2CCN(C(=O)OC(C)(C)C)C2)c(C(=O)NCc2c(C)cc(C)[nH]c2=O)c1C)C1CCOCC1 (stereo not shown) = 200
Cc1cc(C)c(CNC(=O)c2csc(C(C)N3CCC(N(C)C)CC3)c2C)c(=O)[nH]1 (stereo not shown) [Example 27, hydrochloride] = 63
CCN(c1sc(C2CCNC2)c(C(=O)NCc2c(C)cc(C)[nH]c2=O)c1C)C1CCOCC1 (stereo not shown) [Example 58, hydrochloride] = 794

P. Cc1cc(C)c(CNC(=O)c2csc(C(O)[C@H]3CC[C@H](N)CC3)c2C)c(=O)[nH]1 (stereo partly shown)
Q. CCC(c1scc(C(=O)NCc2c(C)cc(C)[nH]c2=O)c1C)C1CCNCC1 (stereo not shown)
R. C/C=C(/CCN1CCOCC1)c1scc(C(=O)NCc2c(C)cc(C)[nH]c2=O)c1C
Kindly order the items shown according to IC50, from the highest value down. Please write the labels in the order that was asked for.
R, P, Q

1. C/C=C(/CCCN1CCC(N(C)C)CC1)c1scc(C(=O)NCc2c(C)cc(C)[nH]c2=O)c1C [Example 74, formate]
2. CCCc1cc(C)[nH]c(=O)c1CNC(=O)c1csc(N(CC)[C@H]2CC[C@H](N(C)C)CC2)c1C
Which shows the larger IC50 value: 1 or 2 ? Field: selected label. Fill in the label of the entry you choose.
1
(1: 200 nM, 2: 25 nM)

###

// IC50 lookup, one value per entry
target: EZH2 within the PRC2 complex (Homo sapiens (Human), UniProt Q15910); assay: EZH2 methyltransferase SPA, biotinylated histone H3K27 peptide substrate (Assay Protocol 2); format: biochemical; conditions: 3H-SAM, ≦10 nM approaches limit of detection
Sequence (Q15910 whole entry): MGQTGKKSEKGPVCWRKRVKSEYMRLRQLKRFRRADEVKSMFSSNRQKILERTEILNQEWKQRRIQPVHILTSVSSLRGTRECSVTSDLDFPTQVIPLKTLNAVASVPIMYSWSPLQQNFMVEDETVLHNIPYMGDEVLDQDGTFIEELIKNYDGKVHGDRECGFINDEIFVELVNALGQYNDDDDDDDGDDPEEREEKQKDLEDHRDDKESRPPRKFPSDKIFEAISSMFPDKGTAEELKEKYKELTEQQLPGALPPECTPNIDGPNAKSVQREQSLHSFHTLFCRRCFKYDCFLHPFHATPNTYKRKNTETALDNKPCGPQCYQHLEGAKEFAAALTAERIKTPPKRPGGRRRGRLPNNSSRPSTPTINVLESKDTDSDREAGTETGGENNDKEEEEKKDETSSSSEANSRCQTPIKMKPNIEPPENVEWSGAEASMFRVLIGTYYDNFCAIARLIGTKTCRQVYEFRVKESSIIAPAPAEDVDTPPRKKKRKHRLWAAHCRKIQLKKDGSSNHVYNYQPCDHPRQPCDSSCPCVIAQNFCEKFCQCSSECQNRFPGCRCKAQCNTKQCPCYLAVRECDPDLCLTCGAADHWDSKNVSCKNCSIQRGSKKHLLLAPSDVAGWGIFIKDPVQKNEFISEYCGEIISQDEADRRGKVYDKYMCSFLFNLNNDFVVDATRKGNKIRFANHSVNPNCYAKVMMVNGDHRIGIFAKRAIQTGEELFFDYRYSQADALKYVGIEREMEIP
Sequence (O75530 whole entry partner): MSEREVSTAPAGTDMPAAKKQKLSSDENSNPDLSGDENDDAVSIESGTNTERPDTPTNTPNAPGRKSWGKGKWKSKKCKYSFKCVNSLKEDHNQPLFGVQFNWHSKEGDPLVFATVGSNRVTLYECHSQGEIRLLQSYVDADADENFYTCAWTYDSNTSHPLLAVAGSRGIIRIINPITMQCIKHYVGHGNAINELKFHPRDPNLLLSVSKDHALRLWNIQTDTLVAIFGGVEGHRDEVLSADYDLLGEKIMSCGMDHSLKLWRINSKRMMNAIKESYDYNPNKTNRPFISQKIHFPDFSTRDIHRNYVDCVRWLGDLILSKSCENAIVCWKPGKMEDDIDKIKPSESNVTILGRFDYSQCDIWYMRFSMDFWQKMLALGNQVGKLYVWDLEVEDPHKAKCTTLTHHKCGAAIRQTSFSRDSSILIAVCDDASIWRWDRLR
Sequence (Q15022 whole entry partner): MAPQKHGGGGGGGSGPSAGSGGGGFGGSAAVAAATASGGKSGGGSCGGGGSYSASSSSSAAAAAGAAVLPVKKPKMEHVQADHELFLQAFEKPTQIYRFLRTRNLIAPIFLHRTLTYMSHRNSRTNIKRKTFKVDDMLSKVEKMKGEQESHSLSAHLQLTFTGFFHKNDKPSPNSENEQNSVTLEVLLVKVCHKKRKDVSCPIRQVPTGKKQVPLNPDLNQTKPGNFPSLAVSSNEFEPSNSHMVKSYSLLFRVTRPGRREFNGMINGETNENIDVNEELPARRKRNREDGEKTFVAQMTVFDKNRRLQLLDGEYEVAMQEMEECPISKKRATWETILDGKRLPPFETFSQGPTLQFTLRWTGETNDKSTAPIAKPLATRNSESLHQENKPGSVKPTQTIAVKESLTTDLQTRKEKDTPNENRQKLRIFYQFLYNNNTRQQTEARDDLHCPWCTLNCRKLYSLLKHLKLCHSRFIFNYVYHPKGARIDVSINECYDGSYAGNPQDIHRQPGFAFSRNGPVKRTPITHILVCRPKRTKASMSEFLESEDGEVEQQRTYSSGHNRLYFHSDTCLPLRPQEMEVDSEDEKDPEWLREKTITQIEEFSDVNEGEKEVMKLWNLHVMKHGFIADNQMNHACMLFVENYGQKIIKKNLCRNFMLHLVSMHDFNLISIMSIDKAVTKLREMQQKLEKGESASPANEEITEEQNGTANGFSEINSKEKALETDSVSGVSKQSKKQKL
Sequence (Q09028 whole entry partner): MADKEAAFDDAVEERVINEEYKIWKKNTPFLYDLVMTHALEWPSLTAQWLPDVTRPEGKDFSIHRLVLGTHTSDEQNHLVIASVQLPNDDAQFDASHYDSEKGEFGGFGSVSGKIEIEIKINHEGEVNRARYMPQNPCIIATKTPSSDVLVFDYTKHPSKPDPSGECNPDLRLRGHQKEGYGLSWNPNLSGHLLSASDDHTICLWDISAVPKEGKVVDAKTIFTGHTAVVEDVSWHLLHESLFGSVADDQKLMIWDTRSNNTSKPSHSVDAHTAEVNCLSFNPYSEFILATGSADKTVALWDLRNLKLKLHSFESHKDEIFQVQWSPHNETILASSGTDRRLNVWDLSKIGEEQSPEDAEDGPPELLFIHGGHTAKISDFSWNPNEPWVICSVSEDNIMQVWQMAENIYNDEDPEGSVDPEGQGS
Sequence (Q6ZN18 whole entry partner): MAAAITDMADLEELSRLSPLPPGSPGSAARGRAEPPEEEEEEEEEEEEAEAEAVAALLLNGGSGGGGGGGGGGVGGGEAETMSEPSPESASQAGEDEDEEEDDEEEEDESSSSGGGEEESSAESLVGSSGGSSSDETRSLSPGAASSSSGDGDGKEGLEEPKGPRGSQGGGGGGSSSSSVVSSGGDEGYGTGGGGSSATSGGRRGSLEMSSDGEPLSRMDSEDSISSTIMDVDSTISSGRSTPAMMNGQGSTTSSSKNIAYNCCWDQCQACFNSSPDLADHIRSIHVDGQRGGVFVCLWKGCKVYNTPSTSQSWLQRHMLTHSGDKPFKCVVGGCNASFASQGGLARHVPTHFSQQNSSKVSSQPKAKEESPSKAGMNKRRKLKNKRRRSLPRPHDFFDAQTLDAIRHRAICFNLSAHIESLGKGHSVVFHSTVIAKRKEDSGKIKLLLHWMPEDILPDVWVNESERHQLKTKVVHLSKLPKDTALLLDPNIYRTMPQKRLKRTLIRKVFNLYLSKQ
Provide only the numeric value, understood in nM.

CCN(c1csc(C(=O)NCc2c(C)cc(C)[nH]c2=O)c1C)C1CCOCC1 [Example 2] = 200
CCN(c1scc(C(=O)NCc2c(C)cc(C)[nH]c2=O)c1C)C1CCN(C(C)C)CC1 [Example 66] = 63

Entry under review: Cc1cc(C)c(CNC(=O)c2cnn(-c3ccccc3)c2C)c(=O)[nH]1 [Example 9] . Reported IC50?
63100

###

target: EZH2 within the PRC2 complex (Homo sapiens (Human)); assay: EZH2 methyltransferase SPA, biotinylated histone H3K27 peptide substrate (Assay Protocol 2); assay type: biochemical; details: 3H-SAM, ≦10 nM approaches limit of detection
pIC50: −log10 of the molar value.
// pIC50 lookup, one value per entry

These solved cases illustrate the format of a correct answer.
CCC(=C1CCNCC1)c1scc(C(=O)NCc2c(C)cc(C)[nH]c2=O)c1C [Example 48] = ≥ 8.00
C/C=C(/c1scc(C(=O)NCc2c(C)cc(C)[nH]c2=O)c1C)C1CCNCC1 [Example 33] = ≥ 8.00

// next entry
Entry under review: Cc1cc(C)c(CNC(=O)c2cnn(CC3CCOCC3)c2C)c(=O)[nH]1 [Example 10] . Reported pIC50?
≤ 4.00

src = patent US9505745B2
